- assay.remarks: chemical genetic growth profiling, strain panel (AID 1159580);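 further: tested at 20 µM; growth read once vehicle control cultures reached saturation at 30 °C; 1 = growth at the plate median or of vehicle wells; lower values mean less growth of the strain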
- condition.set: S. cerevisiae deletion strains, growth OD, locus YBR135W, strain CKS1, stronger effect = lower value
Hit rate of the full screen: of about 5,500 compounds, about 2,000 (36%) were called active. Inconclusive results (about 18%) are left out. Some of the results follow.
measured.parameter: normalized growth
Give bare numbers.

- molecule: "CC(C)(C)c1ccc(-c2cc(NC(=O)c3ccc(Cl)cc3)n[nH]2)cc1"
  normalized growth: 1.02
- molecule: "Cn1cc(Br)c(-c2cccc(NS(=O)(=O)c3ccc(Cl)cc3)c2)n1"
  normalized growth: 0.998
- molecule: "COc1cc(C2SCCS2)cc(Br)c1OC(=O)NC(=O)c1c(Cl)cccc1Cl"
  normalized growth: 0.968
- molecule: "O=C(Nc1ccccc1Sc1ccc(C(F)(F)F)cc1[N+](=O)[O-])C(Cl)Cl"
  normalized growth: 0.987
- molecule: "CCOC(=O)C(NC(=O)c1cccc(Cl)c1)(Nc1nc2ccccc2s1)C(F)(F)F (stereo unspecified)"
  normalized growth: 0.956
- molecule: "O=S(=O)(Nc1cc(C(F)(F)F)cc(C(F)(F)F)c1)c1ccc(Cl)s1"
  normalized growth: 0.93

Provide each entry's normalized growth from the list below.
1. O=C1C(NCc2ccccc2)=C(NCc2ccccc2)C(=O)c2ccccc21
2. CC(C)Sc1c(Cl)cccc1NC(=O)Nc1ccccc1
3. O=C(Nc1cc(Cl)cc(Cl)c1)c1cc(Br)ccc1O
4. O=[N+]([O-])c1cc(C(F)(F)F)ccc1Sc1n[nH]c(-c2cc(Cl)cc(Cl)c2)n1
5. O=C1c2ccccc2C(=O)c2sccc21

OUT:
1. 0.918
2. 0.96
3. 0.946
4. 0.951
5. 0.716

====

So I've got a bunch of compounds here, and I need their normalized growth values.
- assay.remarks: chemical genetic growth profiling, strain panel (AID 1159580);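 further: tested at 20 µM; growth read once vehicle control cultures reached saturation at 30 °C; 1 = growth at the plate median or of vehicle wells; lower values mean less growth of the strain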
- condition.set: S. cerevisiae deletion strains, growth OD, locus YPL106C, strain sse1, stronger effect = lower value
Out of some 5,500 compounds screened, about 2,000 (36%) were called active. About 18% were inconclusive and are not listed. The list shows a part of the results.
Give bare numbers.

Here are 6 compounds together with their reported answers.
- compound: "CC(C)N1C(=O)c2ccccc2NS1(=O)=O"
  normalized growth: 0.971
- compound: "O=C(O)c1cc(=O)c2ccccc2[nH]1"
  normalized growth: 0.972
- compound: "COc1ccc(CC(=O)c2ccc(O)cc2O)cc1"
  normalized growth: 1.02
- compound: "COc1cc(O)ccc1C(C)=O"
  normalized growth: 1.01
- compound: "COCC1=C(C(=O)OC(C)OC(=O)OC(C)C)N2C(=O)[C@@H](NC(=O)/C(=N\\OC)c3csc(N)n3)[C@H]2SC1 (some centres not stated)"
  normalized growth: 0.982
- compound: "CC(=O)Nc1c(I)cc(I)c(C(=O)O)c1I"
  normalized growth: 0.981

The record that follows has no normalized growth shown yet.
Entry C[C@H]1C(=O)CCC2[C@]3(C)CC[C@@]4(C)C5CC(C)(C)CC[C@]5(C)CC[C@]4(C)C3CC[C@@]21C (some centres not stated) , normalized growth reported as 0.989

====

So I've got a bunch of compounds here, and I need their normalized growth values.
- assay.remarks: chemical genetic growth profiling, strain panel (AID 1159580);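 further: tested at 20 µM; growth read once vehicle control cultures reached saturation at 30 °C; 1 = growth at the plate median or of vehicle wells; lower values mean less growth of the strain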
- condition.set: S. cerevisiae deletion strains, growth OD, locus YOL006C, strain TOP1, stronger effect = lower value
Among all 5,500 compounds or so, about 2,000 (36%) were called active. Inconclusive results (about 18%) are left out. The list shows a part of the results.
Give bare numbers.

Provide each entry's normalized growth from the list below.
1. O=C1c2ccccc2C(=O)N1CNc1cccc(Cl)c1
2. COc1ccccc1OCC(O)COC(N)=O (centres undefined)
3. O=C(O)c1cc(O)c2c(c1)C(=O)c1cc(O)cc(O)c1C2=O
4. O=C(CCc1ccc(O)cc1)c1c(O)cc(O)cc1O

OUT:
1. 0.993
2. 1.01
3. 1.02
4. 1.02
